meta.source: PubChem BioAssay (NCI)

Test system: MDA-MB-468 breast
Assay: NCI-60 one-dose screen, 48 h
Details: 10 µM unless noted
Experimental: Growth inhibition of the MDA-MB-468 human Breast tumor cell line is measured as a screen for anti-cancer activity. Cells are grown in 96 well plates and exposed to the test compound for 48 hours. Compounds are tested at a single concentration, which is 10^-5 M for most compounds. The reported endpoint is percent growth (GI% or GIPRCNT), where numbers from 0 - 100% represent growth inhibition, and numbers from -100% - 0 represent cell death. […]
Compounds without any hit were thinned out: in the full panel of roughly 83,000, 20% have a hit. Active and inactive are the calls of the source. How the source made its calls: active means growth percent below 10; inactive means the rest.
API: response.call in active, inactive

Cc1ccc(C(=O)/C(=C\c2ccc([N+](=O)[O-])cc2)S(=O)Cc2ccc(Cl)cc2)cc1 (configuration not stated) : inactive
CC1(C)NC2=C(C(Nc3cccnc3)N1)C(c1ccc([N+](=O)[O-])cc1)C(C(=O)c1ccc(N=[N+]=[N-])cc1)O2 (configuration not stated) : inactive
COc1ccc2c(c1)c(-c1nonc1-c1c[nH]c3ccc(Br)cc13)cn2C : inactive
N#Cc1c(-c2ccco2)nc2c(c(-c3ccccc3)nn2-c2ccccc2)c1-c1ccc(O)cc1 : inactive
COc1cc(NC(=O)Nc2cnc(Nc3ccc(N4CCOCC4)cc3)nc2Oc2ccc(C(F)(F)F)cc2)cc(OC)c1 : inactive
CC1=CC(=O)C(C(C)C)=CC1=Nc1cc(Br)c(O)c(Br)c1 : inactive

Consider now this further compound.
What outcome does the record of this test show for `N#Cc1c2c(nc3n[nH]c(N)c13)CCCC2` ? inactive
